Origin of the recorded values: ChEMBL document CHEMBL1165889

assay: Inhibition of GAT1-mediated [3H]GABA uptake in porcine frontal cortex; assay type: tissue-based, Sus scrofa
READOUT TYPE: pIC50
// pIC50 is dimensionless: -log10 of concentration (M)

Recorded result, Cc1ccsc1C(=CCCN1CCC1CC(=O)O)c1sccc1C (racemic) , pIC50: 5.70

----------
Protein target, amino acids: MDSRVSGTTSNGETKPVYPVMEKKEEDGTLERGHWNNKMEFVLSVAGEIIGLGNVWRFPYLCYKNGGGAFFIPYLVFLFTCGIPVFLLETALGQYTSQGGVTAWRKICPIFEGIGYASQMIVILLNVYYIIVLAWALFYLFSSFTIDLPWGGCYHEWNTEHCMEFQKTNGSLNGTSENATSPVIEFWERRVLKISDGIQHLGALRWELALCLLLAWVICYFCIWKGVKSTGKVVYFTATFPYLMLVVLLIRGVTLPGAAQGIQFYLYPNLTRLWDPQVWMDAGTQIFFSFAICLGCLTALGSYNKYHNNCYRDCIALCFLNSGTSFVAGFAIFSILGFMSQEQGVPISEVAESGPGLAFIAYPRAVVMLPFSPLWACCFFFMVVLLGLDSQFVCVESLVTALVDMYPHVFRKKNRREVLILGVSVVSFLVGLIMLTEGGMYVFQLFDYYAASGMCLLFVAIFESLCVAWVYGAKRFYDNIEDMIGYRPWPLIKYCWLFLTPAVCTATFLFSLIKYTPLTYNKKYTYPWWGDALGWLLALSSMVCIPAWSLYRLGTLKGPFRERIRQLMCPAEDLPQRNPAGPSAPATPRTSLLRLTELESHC
READOUT TYPE: pIC50
Note: pIC50 values are expressed as the negative base-10 logarithm of concentration in M.

The recorded pIC50 for entry `O=C(O)C1=CCCNC1` equals 4.18
